# Test system: DU-145 prostate
# assay procedure: NCI-60 one-dose screen, 48 h (100 = growth as untreated, 0 = no growth, -100 = all killed)
# condition description: 10 µM
The panel holds about 83,000 compounds, 20% with a hit somewhere; the sample as a whole holds those more often.
Please go through the items and note down their growth.
Report only the number, with the unit % understood.

Ask: Could you tell me which growth is on file for `Cc1c(C(=O)N[C@H](CO)Cc2ccccc2)[nH]c2ccc(Cl)cc2c1=O` ?
Reply: 110

Ask: State the recorded growth for this entry: O=c1[nH]c(=O)n(C2C[C@@H](O)[C@@H](CO)O2)cc1F (some centres undefined)
Reply: 37

Ask: Report growth for `CCCCCc1cc[n+](CC(=O)c2ccc(Cl)cc2)cc1` please.
Reply: 95.2

Ask: Param item = `COc1cc(-c2cc(/C=C/C(C)=O)[nH]n2)cc(OC)c1OC` ; retrieve measured growth.
Reply: 77

These entries and their values trace back to PubChem BioAssay (NCI).
